Target: T1, recombinant canine OX40L ECD-TNCc-HIS protein (canine)
T1 construct: also called Trimeric OX40L probe (HIS tag); trimeric canine OX40L
T1 chain: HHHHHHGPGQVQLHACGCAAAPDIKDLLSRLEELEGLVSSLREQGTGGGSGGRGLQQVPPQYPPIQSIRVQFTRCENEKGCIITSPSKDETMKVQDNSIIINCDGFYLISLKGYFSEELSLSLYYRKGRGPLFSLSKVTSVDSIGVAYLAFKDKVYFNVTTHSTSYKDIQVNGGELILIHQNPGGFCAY
Experiment: SPR Koff (kd2)
Kindly state koff for each of the entries shown.
Numbers only; they are read as s⁻¹.

Would you mind telling me what koff value was observed for PMX029 (antibody, V domains shown, also called PMX29) VH: EVQLVESGGDLVKPGGSLRLSCVASGFTFSSYHMNWVRQAPGKGLQWVAYINTGGSRTSYADAVKGRFTISRDNAKNTLYLQMNSLRAEDTAVYYCANNYWDNFDSWGQGTLVTVSS VL: SYELTQPPSVNVTLRETAHITCGGDSIGSKYVQWIQQNPGQAPVVIIYKDTNRPTGIPERFSGANSGNTATLTISGALAEDEADYYCQVGDSGTKASVFGGGTHLTVL ? 0.000779

Please report the recorded koff for PMX097 (antibody, V domains shown, also called PMX97) VH: EVQLVESGGDLVRPGGSLRLSCVASGITFSSYHMSWVRQAPGKGLQWVALINSGGSSITYADVVRGRFTISRDYAKNTLYLQMNSLRAEDTAVYYCASGSIWTHFDYWGQGTRVTVSS VL: SFVLTQLPSVSVTLRQTARITCGGDIIGSKNVYWYQQRLGQAPVLIIYRDSNRPTGIPERFSGASSGNTATLTISGALAEDEADYYCQVWDNSNKAMFGGGTHLTVL . 0.744

Field request: koff | item: PMX098 (antibody, V domains shown) VH: EVQLVESGGDLVKPGGSLRLSCVASGFTFNTYHMNWVRQAPGKGLHWVAFINSGGSGTSYADTVKGRFTISRDYAKNTLYLQMNSLRAEDTAVYYCASGSIWTHFDYWGQGTLVTVSS VL: SYVLTQLPSVSLTLRQTAHITCGGDIIGSKSVYWYQQKLGQAPVLIIYRDNNRPTGIPERFSGASSGNTATLTISGALAEDEADYYCQVWDSSTQAMFGGGTHLTVL 1.03

State the recorded koff for this entry: PMX047 (antibody, V domains shown, also called PMX47) VH: EVQLVESGGDLVKPGGSLRLSCVASGFIFSSYSMSWVRQAPEKGLQLVAGINSAGSSTYYTDAVKGRFTISRDNAKNTVYLQMNSLRAEDTAIYYCAKRWVFDFWGQGTLVTVSS VL: HIVMTQTPLSLSVSPGEPASISCKASQSLLLSYGNTYLYWFRQKPGQSPQRLIYKVSNRDPGVPDRFSGSGSGTDFTLRISRVEADDAGVYYCGQGIQDPFTFGQGTKLEIK 1.5e-05
